experiment: TIMS collisional cross section (CCS, N2) of the lipid ion; higher = larger ion cross section; conditions: sample type: plasma; ionization mode: positive; one isomer drawn
± gives the standard deviation of the averaged measurements.
metric: TIMS collisional cross section

So for CCCCCCCCCCCCC/C=C/[C@@H](O)[C@H](COP(=O)([O-])OCC[N+](C)(C)C)NC(=O)CCCCCCCCCCCCCCC [SM d18:1_16:0@] (ion (formula + adduct): [C39H79N2O6P+H] 1+) , the logged TIMS collisional cross section turned out to be 285.4 Å²

TIMS collisional cross section reading for CCCCCCCCCCCCCCCCCCCC(=O)OC[C@@H](O)COP(=O)([O-])OCC[N+](C)(C)C [LPC 20:0_0:0] (ion (formula + adduct): [C28H58NO7P+H] 1+) : 245 Å²

The measured TIMS collisional cross section associated with CCCCCCCC/C=C\CCCCCCCC(=O)O[C@H](COC(=O)CCCCCCCCCCCCCCC)COP(=O)([O-])OCC[N+](C)(C)C [PC 16:0_18:1] (ion (formula + adduct): [C42H82NO8P+H] 1+) reads 287.7 Å²

Entry CCCCCCCC/C=C\CCCCCCCC(=O)OC[C@@H](O)COP(=O)(O)OCCN [LPE 18:1] (ion (formula + adduct): [C23H46NO7P+H] 1+) , TIMS collisional cross section reported as 216.93 ± 1.3 Å²

Reported TIMS collisional cross section for CCCCCCCC/C=C\CCCCCCCCCC(=O)OC[C@@H](COC(=O)CCCCCCCCCCCCCCCC)OC(=O)CCCCCCC/C=C\CCCCCCCC [TG 17:0_18:1_20:1] (ion (formula + adduct): [C58H108O6+NH4] 1+) was 332 Å²

# TIMS collisional cross section of CCCCCCCCCCCCCCCCC(=O)OC[C@@H](COC(=O)CCCCCCCCCCC)OC(=O)CCCCCCCCCCCCCC [TG 12:0_15:0_17:0] (ion (formula + adduct): [C47H90O6+NH4] 1+) = 302.1 Å²

The value of TIMS collisional cross section measured for the molecule CCCCCCCCCCCCCCCCCCCCCC(=O)OC[C@@H](COC(=O)CCCCCCCCCCCCCCCCC)OC(=O)CCCCCCCCCCCCCCCCCCC [TG 18:0_20:0_22:0] (ion (formula + adduct): [C63H122O6+NH4] 1+) turned out to be 349.1 Å²

Given item CCCCC/C=C\C/C=C\C/C=C\C/C=C\CCCCCC(=O)OC[C@@H](COC(=O)CCCCCCCCCCCCCCC)OC(=O)CCCCCCC/C=C\C/C=C\CCCCC [TG 16:0_18:2_22:4] (ion (formula + adduct): [C59H102O6+NH4] 1+) , the value recorded as its TIMS collisional cross section is 327.9 Å²

response.value for CCCCCC/C=C\CCCCCCCC(=O)O[C@@H](COC(=O)CCCCCCC/C=C\CCCCCCCC)COC(=O)CCCCCCCCCCCCCC [TG 15:0_16:1_18:1] (ion (formula + adduct): [C52H96O6+NH4] 1+) (field: TIMS collisional cross section) = 312.8 ± 0.14 Å²

====

experiment: TIMS collisional cross section (CCS, N2) of the lipid ion; higher = larger ion cross section; conditions: sample type: HeLa; ionization mode: positive; one isomer drawn
For each record, write down the corresponding TIMS collisional cross section.
Hi! Could you send only the number? It should be in Å², unit omitted.

Field TIMS collisional cross section (entry CCCCCCCC/C=C\CCCCCCCCCCCCCC(=O)OC[C@@H](O)COP(=O)([O-])OCC[N+](C)(C)C [LPC 24:1] (ion (formula + adduct): [C32H64NO7P+H] 1+) ) reads 253.5

TIMS collisional cross section in this record for CCCCC/C=C\C/C=C\C/C=C\CCCCC(=O)O[C@H](COC(=O)CCCCCCC/C=C\CCCCCC)COP(=O)([O-])OCC[N+](C)(C)C [PC 16:1@_18:3] (ion (formula + adduct): [C42H76NO8P+H] 1+) : 279.2

Measured TIMS collisional cross section, CCCCCCCCCCCCCCCCC(=O)OC[C@@H](COC(=O)CCCCCCCCCCCCC)OC(=O)CCCCCCCCCCCCC [TG 14:0_14:0_17:0] (ion (formula + adduct): [C48H92O6+NH4] 1+) : 304.6

Kindly note the recorded TIMS collisional cross section for CCCCCCCC/C=C\CCCCCCCCCCCC(=O)OC[C@@H](COC(=O)CCCCCCCCCCCCCCC)OC(=O)CCCCCCCCCCCCCCCC [TG 16:0_17:0_22:1] (ion (formula + adduct): [C58H110O6+NH4] 1+) , which is 332.9

Notebook: CCCCC/C=C\C/C=C\C/C=C\C/C=C\CCCCCC(=O)O[C@@H](CO)COC(=O)CCCCCCCCCCCCCCC [DG 16:0_22:4_0:0] (ion (formula + adduct): [C41H72O5+NH4] 1+) , TIMS collisional cross section read as 271.2

====

Give TIMS collisional cross section for every item shown.
test: TIMS collisional cross section (CCS, N2) of the lipid ion; higher = larger ion cross section; details: sample type: Liver; ionization mode: positive; one isomer drawn
Reply numerically in Å², unit not repeated.

Form field TIMS collisional cross section, entry CCCCC/C=C\C/C=C\CCCCCCCC(=O)O[C@@H](CO)COC(=O)CCCCCCC/C=C\CCCCCCCC [DG 18:1_18:2_0:0] (ion (formula + adduct): [C39H70O5+NH4] 1+) : 261.3

Reported TIMS collisional cross section ( CCCCCC/C=C\CCCCCCCC(=O)OC[C@@H](COC(=O)CCCCCCCCCCCCC)OC(=O)CCCCCCCCCCCCCCC [TG 14:0_16:0_16:1] (ion (formula + adduct): [C49H92O6+NH4] 1+) ) = 306.1

Please fill in: TIMS collisional cross section reported for CC/C=C\C/C=C\C/C=C\C/C=C\C/C=C\C/C=C\CCC(=O)OC[C@H](COP(=O)(O)OCCN)OC(=O)CCCCCCCCCCCCCCCCCCC [PE 22:6_20:0] (ion (formula + adduct): [C47H82NO8P+H] 1+) = 292.6

Notebook: CCCCC/C=C\C/C=C\CCCCCCCC(=O)OC[C@@H](COC(=O)CCCCCCCCCCCCCCCCC)OC(=O)CCCCCCC/C=C\CCCCCCCC [TG 18:0_18:1_18:2] (ion (formula + adduct): [C57H104O6+NH4] 1+) , TIMS collisional cross section read as 326.4

Looking up CCCCCCCCCCC/C=C\CCCCC(=O)OC[C@@H](O)COP(=O)([O-])OCC[N+](C)(C)C [LPC 18:1_0:0] (ion (formula + adduct): [C26H52NO7P+H] 1+) , I see its TIMS collisional cross section listed as 232.95

TIMS collisional cross section recorded for this compound, CCCCC/C=C\C/C=C\C/C=C\CCCCCCC(=O)O[C@@H](CO)COC(=O)CCCCCCCCCCCCCCCCC [DG 18:0_20:3_0:0] (ion (formula + adduct): [C41H74O5+NH4] 1+) , is 271.8

====

experiment: TIMS collisional cross section (CCS, N2) of the lipid ion; higher = larger ion cross section; details: sample type: Liver; ionization mode: positive; one isomer drawn
metric: TIMS collisional cross section (Å²)
Expressed in Å², but write only the number.

Reported TIMS collisional cross section for CC/C=C\C/C=C\C/C=C\C/C=C\C/C=C\C/C=C\CCC(=O)OC[C@@H](COC(=O)CCCCCCC/C=C\C/C=C\CCCCC)OC(=O)CCCCCCC/C=C\C/C=C\CCCCC [TG 18:2_18:2_22:6] (ion (formula + adduct): [C61H98O6+NH4] 1+) was 327.3

# molecule CCCCCC/C=C\CCCCCCCC(=O)O[C@@H](COC(=O)CCCCCCC/C=C\CCCCCCCC)COC(=O)CCCCCCCCCCCCCCC [TG 16:0_16:1_18:1] (ion (formula + adduct): [C53H98O6+NH4] 1+) ; its TIMS collisional cross section = 315.95

TIMS collisional cross section measured on CCCCCCCC/C=C\CCCCCCCCCCCC(=O)O[C@@H](CO)COC(=O)CCCCCCC/C=C\CCCCCCCC [DG 18:1_22:1_0:0] (ion (formula + adduct): [C43H80O5+NH4] 1+) = 278.5

For this molecule ( CCCCC/C=C\CCCCCCCC(=O)OC[C@H](COC(=O)CCCCCCCCCCCCCCC)OC(=O)CCCCCCCCCCCCCCC [TG 15:1_16:0_16:0] (ion (formula + adduct): [C50H94O6+NH4] 1+) ), measured TIMS collisional cross section is 309.7

====

experiment: TIMS collisional cross section (CCS, N2) of the lipid ion; higher = larger ion cross section; conditions: sample type: plasma; ionization mode: positive; one isomer drawn
Where TIMS collisional cross section equals or exceeds 300 Å², the correct label is Fulfilled; where it does not, the label is Not fulfilled.

Decide: TIMS collisional cross section of CCCCCC/C=C\CCCCCCCC(=O)O[C@H](COC(=O)CCCCCCCCCCCCCCC)COP(=O)([O-])OCC[N+](C)(C)C [PC 16:0_16:1] (ion (formula + adduct): [C40H78NO8P+H] 1+) >= 300 Å²?
Not fulfilled

Hi team, for CCCCC/C=C\C/C=C\CCCCCCCC(=O)O[C@H](COC(=O)CCCCCCC/C=C\CCCCCCCC)COC(=O)CCCCCCC/C=C\CCCCCCCCC [TG 18:1_18:2_19:1] (ion (formula + adduct): [C58H104O6+NH4] 1+) , is the recorded TIMS collisional cross section at or above 300 Å²?
Fulfilled

Reported TIMS collisional cross section reaches at least 300 Å² for CCCCC/C=C\C=C\CCCCCCCCC(=O)O[C@H](COC(=O)CCCCCCCCCCCCCCC)COP(=O)([O-])OCC[N+](C)(C)C [PC 16:0_18:2] (ion (formula + adduct): [C42H80NO8P+H] 1+) ?
Not fulfilled

// inclusive: TIMS collisional cross section at least 300 Å²? input: CCCCC/C=C\C/C=C\C/C=C\C/C=C\CCCCCC(=O)O[C@@H](CO)COC(=O)CCCCCCC/C=C\CCCCCCCC [DG 18:1_22:4_0:0] (ion (formula + adduct): [C43H74O5+NH4] 1+)
Not fulfilled

Item CCCCCCCC/C=C\CCCCCCCCCCCCCC(=O)N[C@@H](CO)[C@H](O)/C=C/CCCCCCCCCCCCC [Cer d18:1_24:1@] (ion (formula + adduct): [C42H81NO3+H] 1+) with TIMS collisional cross section of 300 Å² or above?
Not fulfilled

Confirm if TIMS collisional cross section reported for the molecule CCCCCCCCCCC/C=C/[C@@H](O)[C@H](COP(=O)([O-])OCC[N+](C)(C)C)NC(=O)CCCCCCCCCCCCCCC [SM d16:1_16:0@] (ion (formula + adduct): [C37H75N2O6P+H] 1+) is 300 Å² or above.
Not fulfilled

Check if TIMS collisional cross section >= 300 Å² (inclusive). Item: CCCCC/C=C\C/C=C\C/C=C\CCCCC(=O)O[C@H](COC(=O)CCCCCCCCCCCCCCCCC)COP(=O)(O)OCCN [PE 18:0@_18:3] (ion (formula + adduct): [C41H76NO8P+H] 1+)
Not fulfilled

Reported TIMS collisional cross section at or above 300 Å²? CCCCCC/C=C\CCCCCCCC(=O)OC[C@@H](O)COP(=O)(O)OCCN [LPE 16:1] (ion (formula + adduct): [C21H42NO7P+H] 1+)
Not fulfilled

Given CCCCC/C=C\C/C=C\C/C=C\CCCCC(=O)O[C@H](COC(=O)CCCCCCCCCCCCCCC)COP(=O)([O-])OCC[N+](C)(C)C [PC 16:0_18:3] (ion (formula + adduct): [C42H78NO8P+H] 1+) , state whether its TIMS collisional cross section is at least 300 Å².
Not fulfilled

Could you verify whether the entry CCCCC/C=C\C/C=C\CCCCCCCC(=O)OC[C@@H](COC(=O)CCCCCCCCCCCCCCC)OC(=O)CCCCCCC/C=C\CCCCCCCC [TG 16:0_18:1_18:2] (ion (formula + adduct): [C55H100O6+NH4] 1+) shows TIMS collisional cross section of no less than 300 Å²?
Fulfilled

Hello, I need to know if CCCCCCCCCCCCCCCCCCCCOC[C@@H](O)COP(=O)([O-])OCC[N+](C)(C)C [LPC O- 20:0] (ion (formula + adduct): [C28H60NO6P+H] 1+) has measured TIMS collisional cross section not below 300 Å². Thanks!
Not fulfilled

Is it the case that CCCCCCCCCCC/C=C\CCCCC(=O)OC[C@@H](O)COP(=O)([O-])OCC[N+](C)(C)C [LPC 18:1_0:0] (ion (formula + adduct): [C26H52NO7P+H] 1+) has TIMS collisional cross section reaching or exceeding 300 Å²?
Not fulfilled

Say whether CCCCC/C=C\C/C=C\C/C=C\CCCCCCCCC(=O)OC[C@@H](COC(=O)CCCCCCCCCCCCCCC)OC(=O)CCCCCCCCCCCCCCCCCCC [TG 16:0_20:0_22:3] (ion (formula + adduct): [C61H112O6+Na] 1+) shows TIMS collisional cross section of 300 Å² or more.
Fulfilled

Assess whether reported TIMS collisional cross section for CCCCC/C=C\C/C=C\C/C=C\C/C=C\CCCC(=O)OC[C@@H](O)COP(=O)(O)O [LPA 20:4_0:0] (ion (formula + adduct): [C23H39O7P+H] 1+) sits at 300 Å² or higher.
Not fulfilled
